Cited source: paper PMC11933844

- Tgt: MdNAC18.1 (UniProt A0A498K6T8 1-364)
- Sequence (A0A498K6T8 entry or part of it): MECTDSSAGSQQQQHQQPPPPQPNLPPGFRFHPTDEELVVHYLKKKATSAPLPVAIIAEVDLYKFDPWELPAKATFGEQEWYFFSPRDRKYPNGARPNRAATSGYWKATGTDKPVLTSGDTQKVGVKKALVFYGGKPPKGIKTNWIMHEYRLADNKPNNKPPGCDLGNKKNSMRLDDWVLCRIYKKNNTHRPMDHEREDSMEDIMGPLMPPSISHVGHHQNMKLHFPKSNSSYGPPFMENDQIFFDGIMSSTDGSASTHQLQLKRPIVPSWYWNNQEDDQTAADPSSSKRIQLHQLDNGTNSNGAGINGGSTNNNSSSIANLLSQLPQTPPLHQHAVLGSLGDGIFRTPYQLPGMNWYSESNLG
- Experimental Protocol: EMSA; Beyotime Chemiluminescent EMSA Kit GS009; buffer, salt, pH and temperature not stated
- Test Parameters: protein: recombinant; tags: His (pET32A); chain copies: 2; blunt
Measurement Label: binding result

[[record]]
binder = "MdMYC2 promoter probe NACBS1 (dsDNA) DNA 1: TCTGGGATCCTGGTTTCACGGGTTTTCGAGGTTTTC DNA 2: GAAAACCTCGAAAACCCGTGAAACCAGGATCCCAGA"
measurement_label = "binding result"
result = "binds"

[[record]]
binder = "MdACO1-like promoter probe mutant (dsDNA) DNA 1: TCAAGTACCATAACAAAAAATAACTTGCAAAGTTCC DNA 2: GGAACTTTGCAAGTTATTTTTTGTTATGGTACTTGA"
measurement_label = "binding result"
result = "no binding"

[[record]]
binder = "MdNAC18.1 P promoter probe mutant (dsDNA) DNA 1: GACATACAATGTTCTGATTCGTATGAGATAACTTAA DNA 2: TTAAGTTATCTCATACGAATCAGAACATTGTATGTC"
measurement_label = "binding result"
result = "no binding"

[[record]]
binder = "MdACS1 promoter probe mutant (dsDNA) DNA 1: GTACACTTATAATAAAAAAACAAGTTTGTAGGTAAT DNA 2: ATTACCTACAAACTTGTTTTTTTATTATAAGTGTAC"
measurement_label = "binding result"
result = "no binding"

